- assay system: ZFP SBS#652 (synthetic)
- Sequence (chain, as listed by the source): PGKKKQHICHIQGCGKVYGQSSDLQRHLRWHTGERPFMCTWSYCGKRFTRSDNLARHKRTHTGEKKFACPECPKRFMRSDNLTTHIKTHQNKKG
- assay notes: EMSA
- assay context: tags: MBP fusion
pKd: −log10 of the molar value.
readout name: pKd

[[record]]
binder = "TAGGAGGCTG (dsDNA) DNA 1: TAGGAGGCTG DNA 2: CAGCCTCCTA"
meas_value = 8.82

